Test system: OVCAR-5 ovarian
procedure.summary: NCI tumour cell line growth inhibition, 48 h; in the data active = GI50 below about 0.43 µM; inactive = the rest
Choose one outcome from this list and give only that: 1 = active, -1 = inactive

Worked examples, 3 molecules total:
{"columns": ["molecule", "answer.label"],
 "data": [
  ["COc1cc(N2CCC(N3CCN(C)CC3)CC2)ccc1Nc1ncc(Cl)c(Nc2ccccc2S(=O)(=O)C(C)C)n1", -1],
  ["COc1cc2c(cc1OCCCN1CCN(c3ncnc4ccccc34)CC1)N=CC1CCCN1C2=O (centres undefined)", 1],
  ["Oc1c(CN2CCN(c3ccccc3F)CC2)cc(Br)c2cccnc12", -1]
]}

For the next question, use this molecule.
Q. For COc1cc2c3c(n(CCCN4CCCC(O)C4)c(=O)c2cc1OC)-c1cc2c(cc1C3=O)OCO2 (centres undefined) , what call appears in the results of this test?
A. -1
